- SUBJECT_OF_TEST: T1, human CD20 antigen (human, UniProt P11836 1-297)
- T1 construct: whole, on cells; also called Bp35; B1
- T1 sequence (looked up): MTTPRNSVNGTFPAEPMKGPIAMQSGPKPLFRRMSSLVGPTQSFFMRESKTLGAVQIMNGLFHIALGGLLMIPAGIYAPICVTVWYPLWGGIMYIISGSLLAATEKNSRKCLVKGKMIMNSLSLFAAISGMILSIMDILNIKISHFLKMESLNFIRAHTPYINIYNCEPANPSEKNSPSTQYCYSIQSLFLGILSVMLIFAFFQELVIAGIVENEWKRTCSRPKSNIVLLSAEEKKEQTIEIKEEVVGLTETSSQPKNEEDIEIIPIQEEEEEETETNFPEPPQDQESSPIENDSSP
- MEASUREMENT_DESCRIPTION: flow cytometry, Daudi cells (CD20 positive)
METRIC_NAME: Mean Fluorescence Intensity (MFI)
Kindly format the answer as number then unit.

Sample answers from the record:
BINDER | Mean Fluorescence Intensity (MFI)
optimized humanized mAb 1237 (antibody, V domains shown, detected with anti-human Ig Fc) VH: QVQLVQSGAEVKKPGSSVKVSCKASGYTFTSYNMHWVRQAPGQGLEWIGAIYPGNGDTSYNQKFKGKATITADKSTSTAYMELSSLRSDDTAVYYCARSTYYAGDWNFNNWGQGTLVTVSS VL: DIQMTQSPSSLSASVGDRVTITCRASSSVSYIHWFQQKPGKAPKPLIYAASSLQSGVPSRFSGSGSGTDYTLTISSLQPEDFATYYCQQWTSNPPTFGGGTKLEIK | 1370 MFI
optimized humanized mAb 1652 (antibody, V domains shown) VH: QVQLVQSGAEVKKPGSSVKVSCKASGYTFTSYNMHWVRQAPGQGLEWIGAIYPGNGATSYNQKFKGKATITADKSTSTAYMELSSLRSDDTAVYYCARSTYYAGDWNFNNWGQGTLVTVSS VL: DIQMTQSPSSLSASVGDRVTITCRASSSVSYIHWFQQKPGKAPKPLIYAASSLQSGVPSRFSGSGSGTDYTLTISSLQPEDFATYYCQQWQSNPPTFGGGTKLEIK | 1420 MFI
optimized humanized mAb 1589 (antibody, V domains shown) VH: QVQLVQSGAEVKKPGSSVKVSCKASGYTFTSYNMHWVRQAPGQGLEWIGAIYPGNGATSYNQKFKGKATITADKSTSTAYMELSSLRSDDTAVYYCARSTYYAGDWNFNNWGQGTLVTVSS VL: DIQMTQSPSSLSASVGDRVTITCRASSSVSYIHWFQQKPGKAPKPLIYAASSLQSGVPSRFSGSGSGTDYTLTISSLQPEDFATYYCQQWTSNPPTFGGGTKLEIK | 1030 MFI
optimized humanized mAb 1692 (antibody, V domains shown) VH: QVQLVQSGAEVKKPGSSVKVSCKASGYTFTSYNMHWVRQAPGQGLEWIGAIYPGNGDTSYNQKFKGKATITADKSTSTAYMELSSLRSDDTAVYYCARSTYYAGDWNFGNWGQGTLVTVSS VL: DIQMTQSPSSLSASVGDRVTITCRASSSVSYIHWFQQKPGKAPKPLIYAASSLQSGVPSRFSGSGSGTDYTLTISSLQPEDFATYYCQQWTSNPPTFGGGTKLEIK | 1670 MFI

For every listed record, write down its Mean Fluorescence Intensity (MFI).
1. optimized humanized mAb 1588 (antibody, V domains shown) VH: QVQLVQSGAEVKKPGSSVKVSCKASGYTFTFYNMHWVRQAPGQGLEWIGAIYPGNGDTSYNQKFKGKATITADKSTSTAYMELSSLRSDDTAVYYCARSTYYAGDWNFNNWGQGTLVTVSS VL: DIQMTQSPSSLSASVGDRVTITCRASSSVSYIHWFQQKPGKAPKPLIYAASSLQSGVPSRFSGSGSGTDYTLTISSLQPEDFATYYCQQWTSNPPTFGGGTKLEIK
2. optimized humanized mAb 1590 (antibody, V domains shown) VH: QVQLVQSGAEVKKPGSSVKVSCKASGYTFTSYNMHWVRQAPGQGLEWIGAIYPGNGLTSYNQKFKGKATITADKSTSTAYMELSSLRSDDTAVYYCARSTYYAGDWNFNNWGQGTLVTVSS VL: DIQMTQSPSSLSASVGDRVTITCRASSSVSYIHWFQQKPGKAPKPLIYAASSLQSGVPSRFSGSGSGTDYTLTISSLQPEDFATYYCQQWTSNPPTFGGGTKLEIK

Key:
["2070 MFI", "1630 MFI"]
